# Tested on: NCI-H23 lung
# protocol summary: NCI tumour cell line growth inhibition, 48 h
readout kind: TGI

Example results:
| compound | target | TGI |
| --- | --- | --- |
| COc1cc(NC(=O)COc2ccccc2)c(C(N)=O)cc1OC | NCI-H23 lung | 20.4 µM |
| CC(C)(CCCCC(C)(C)NC1=NCCO1)NC1=NCCO1 | NCI-H23 lung | > 10 µM |
| O[C@@H]1[C@H](OC2c3ccccc3-c3ccccc32)[C@H](OCc2ccccc2)[C@@H]2OC[C@H]1O2 | NCI-H23 lung | > 100 µM |
| COC(=O)C(=O)C(C(=O)C(=O)Nc1cccc(OC)c1)c1nc2ccc(Cl)cc2[nH]c1=O (centres undefined) | NCI-H23 lung | > 100 µM |
| Fc1ccc2c(c1)SC1=Nc3sc4cc(F)ccc4[n+]3CN12 | NCI-H23 lung | 47.3 µM |

(Q) I'd like to know its TGI. The compound in question is "Cc1cn([C@H]2C[C@@H](N3C(=O)c4ccccc4C3=O)[C@@H](CO[Si](C)(C)C(C)(C)C)O2)c(=O)[nH]c1=O"
(A) > 100 µM

(Q) Field entry: "CNS(=O)(=O)Nc1nccc(Cc2c(C)c3ccc(Oc4ncccn4)cc3oc2=O)c1F"
(A) > 100 µM

(Q) Field entry: "N#Cc1c(CC(=O)O)cc(=O)n2c1[nH]c1ccccc12"
(A) > 100 µM

(Q) Field entry: "O=C1[C@H](Cc2ccc(O)cc2)N2C(=O)CCN(C(=O)NCc3ccccc3)[C@H]2CN1Cc1cccc2ccccc12"
(A) 34.5 µM

(Q) Field entry: O/N=C1/C(=C/c2ccc(OCc3ccccc3)cc2)CCCC1C(NO)c1ccc(OCc2ccccc2)cc1 (centres undefined)
(A) > 100 µM

(Q) Field entry: "Cc1ccccc1NC(=O)CC(=O)NNCC(=O)Nc1nnc(-c2ccccc2)s1"
(A) > 100 µM

(Q) Field entry: "C(=NC12CC3CC(CC(C3)C1)C2)C1CCCCC1"
(A) > 100 µM

(Q) Field entry: "CN(C)c1ccc(/C=c2/sc3nc(=O)c(-c4ccccc4NC(=O)C(F)(F)F)nn3c2=O)cc1"
(A) > 100 µM

(Q) Field entry: N#CC1=C(S)N(C2OC(CO)C(O)C(O)C2O)C(c2ccccc2)=CC1c1ccco1 (centres undefined)
(A) > 100 µM

----------
# Test system: RXF 393 renal
# protocol summary: NCI tumour cell line growth inhibition, 48 h
Measured TGI accompanies every entry in the list below.

Example results:
| compound | target | TGI |
| --- | --- | --- |
| CC(C)=CCC[C@@H](C)C1=C(N)C(O)=C(C)C(=O)C1=O | RXF 393 renal | > 75 µM |
| CNS(=O)(=O)Nc1nccc(Cc2c(C)c3ccc(Oc4ncccn4)cc3oc2=O)c1F | RXF 393 renal | > 100 µM |

// below: TGI requested for another compound
(Q) I'd like to know its TGI. The compound in question is NC(Cc1cc(I)c(Oc2ccc(O)c(I)c2)c(I)c1)C(=O)O (stereo not drawn)
(A) > 100 µM

----------
Measured TGI accompanies every entry in the list below.
# Tested on: HCC-2998 colon
# protocol summary: NCI tumour cell line growth inhibition, 48 h

Example results:
| molecule | target | result |
| --- | --- | --- |
| COc1ccc(-c2c(Nc3ccccn3)nc3c(C4=CCCCC4)c(-c4ccccc4)[nH]n3c2=O)cc1 | HCC-2998 colon | > 100 µM |
| O=[N+]([O-])c1ccc(/C=C/c2ccc(/C=C/c3ccc([N+](=O)[O-])cc3[N+](=O)[O-])cc2)c([N+](=O)[O-])c1 | HCC-2998 colon | > 100 µM |
| COC(=O)N/N=C(\C)c1sc(-c2nc(C)c(/C(C)=N/NC(=O)OC)s2)nc1C | HCC-2998 colon | > 100 µM |
| NS(=O)(=O)c1c(O)c2ccccc2oc1=O | HCC-2998 colon | > 100 µM |
| C/C=C1/C=CC2c3[nH]c4ccccc4c3CCN2C1 (stereo not given) | HCC-2998 colon | > 400 µM |
| NC1=C(c2nc(-c3ccccc3)cs2)C(c2ccco2)c2c(c3ccccc3oc2=O)O1 (stereo not given) | HCC-2998 colon | > 100 µM |
| CCN(CC)/[N+]([O-])=N/OS(=O)(=O)N(C)C | HCC-2998 colon | > 100 µM |
| C=CCN(c1cc(O)c2c(c(C)cn2S(=O)(=O)c2ccccc2)c1[N+](=O)[O-])S(C)(=O)=O | HCC-2998 colon | > 100 µM |
| O=C1NC(=NCc2cccs2)O/C1=C\c1ccc2ncccc2c1 | HCC-2998 colon | > 25 µM |

// below: TGI requested for another molecule
(Q) I'd like to know its TGI. The molecule in question is "CC(C)C(=O)Cc1ccc2ccccc2n1"
(A) > 100 µM

----------
# System: 786-0 renal
# protocol summary: NCI tumour cell line growth inhibition, 48 h
Measured TGI accompanies every entry in the list below.

Example results:
| molecule | TGI |
| --- | --- |
| COc1ccc(OC/C(N)=N/NC(=O)c2ccncc2)cc1 | > 100 µM |
| C(=C\c1cc[n+](CCc2ccccc2)cc1)/c1ccccc1 | > 100 µM |
| CCCCCCCCCCCCCCCCOP(=O)([O-])OCC[N+](C)(C)C1CC(C)(C)N(O)C(C)(C)C1 | > 100 µM |

(Q) I'd like to know its TGI. The molecule in question is "O=c1oc2ccccc2c(-c2ccc(O)cc2)c1Oc1ccccc1"
(A) 66.4 µM

(Q) Field entry: "CC(C)C(=O)Cc1ccc2ccccc2n1"
(A) > 100 µM

(Q) Field entry: "C#CCN(C(=O)C(F)(F)F)C(/C=C\C(=O)OC)(C(=O)OCC)C(=O)OCC"
(A) > 100 µM

(Q) Field entry: "Cc1nc2ccccc2n1Cc1nnc(-c2ccccc2)o1"
(A) > 100 µM

(Q) Field entry: N#CC1=C(S)N(C2OC(CO)C(O)C(O)C2O)C(c2ccccc2)=CC1c1ccco1 (centres undefined)
(A) > 100 µM

(Q) Field entry: "CC(=O)Nc1ccc2c(c1)C(=O)c1ccccc1-2"
(A) > 100 µM

----------
# Test system: DMS 114 small cell lung
# protocol summary: NCI tumour cell line growth inhibition, 48 h
Decision: TGI compared against 40 µM; not below it gives t, below it gives f.

A selection of reference data follows.
| molecule | target | label |
| --- | --- | --- |
| CCOC(=O)C1(C)CCC(C(=O)OC)C1=O (centres undefined) | DMS 114 small cell lung | f |
| CN(C)CCNC(=O)c1cccc2c1nc(-c1cccnc1)c1ccccc12 | DMS 114 small cell lung | f |
| CC(C)(C)C1CC[C@H]2c3c([nH]c4ccccc34)[C@H]3C(=O)N(c4ccc(F)cc4)C(=O)[C@H]3[C@H]2C1 (some centres undefined) | DMS 114 small cell lung | f |
| O=[N+]([O-])c1ccc(/C=C/c2ccc(/C=C/c3ccc([N+](=O)[O-])cc3[N+](=O)[O-])cc2)c([N+](=O)[O-])c1 | DMS 114 small cell lung | t |

(Q) For this molecule, is measured TGI 40 µM or higher? C/C=C1/C=CC2c3[nH]c4ccccc4c3CCN2C1 (centres undefined)
(A) t

(Q) Field entry: O=C(CC1(O)C(=O)Nc2c(Cl)cc(Cl)cc21)c1cccc([N+](=O)[O-])c1 (centres undefined)
(A) t

(Q) Field entry: CC(C)CCCC(C)C1CCC2C3CC([N+](=O)[O-])=C4CC(O)CCC4(C)C3CCC12C (centres undefined)
(A) t

(Q) Field entry: "N#CC1(CCCCl)CCCCC1"
(A) t

(Q) Field entry: "CN(C)c1ccc(/C=c2/sc3nc(=O)c(-c4ccccc4NC(=O)C(F)(F)F)nn3c2=O)cc1"
(A) t

----------
# Tested on: SW-620 colon
# protocol summary: NCI tumour cell line growth inhibition, 48 h
readout kind: TGI

Example results:
| compound | result |
| --- | --- |
| N/C(CCSCCSCC/C(N)=N\O)=N\O | > 100 µM |
| N#CC1(CCCCl)CCCCC1 | > 100 µM |
| CC(=O)NC(CCCNC(=O)OCc1ccccc1)C(=O)NCc1ccccc1 (stereo unspecified) | > 100 µM |
| NC(CCC(=O)O)C(=O)NC(Cc1ccc(N(CCCl)CCCl)cc1)C(=O)O (stereo unspecified) | > 100 µM |

(Q) I'd like to know its TGI. The compound in question is "CCOC(=O)c1c(Cl)c2c(n1Cc1ccccc1)-c1oncc1CCC2"
(A) > 100 µM

(Q) Field entry: "CCCN1C(=O)CN(S(=O)(=O)c2ccc(Cl)cc2)C1=O"
(A) > 100 µM

Each recorded value in this set is attributed to PubChem BioAssay (NCI).
